# experiment: Cytotoxicity against human U87 cells assessed as reduction in cell viability after 24 hrs in absence of 10% fetal calf serum by MTS assay
# Type: functional, cell-based, U-87MG ATCC
# reported conditions: U-87 MG
recorded metric: IC50 (µM)
Respond numerically; units are µM and should not be typed.

Query: Requested field: IC50. Item: `C/C(=C\CN1CCC(Cc2ccccc2)CC1)c1ccc2ccccc2c1`
Response: 10.5

###

# experiment: Antiproliferative activity against mouse Panc02 cells after 24 hrs
# Format: functional, cell-based
# reported conditions: Panc02, 24 h
pIC50: −log10 of the molar value.
recorded metric: pIC50

# count of solved cases: 2
Query: Requested field: pIC50. Item: COc1ccc(C)cc1NC(=O)OC1CC2CCCC(C1)N2CCCCCCN (stereo not drawn)
Response: ≥ 4.00

Query: Requested field: pIC50. Item: COc1ccc(C)cc1NC(=O)OC1CC2CCCC(C1)N2Cc1ccc(N(C)C)cc1 (stereo not drawn)
Response: ≥ 4.00

Note: attention shifts to another entry.
Query: Requested field: pIC50. Item: O[C@@H](CN1C2CCC1CC(c1ccccc1)C2)c1cccc(Br)c1 (stereo partly drawn)
Response: ≥ 4.00
